Please provide measured IC50 for the entries that follow.
Molecular target: thromboxane A2 receptors (TPα) of human platelets (Homo sapiens)
Construct: endogenous in cells; host or cells: human platelets
Sequence (P21731 whole entry): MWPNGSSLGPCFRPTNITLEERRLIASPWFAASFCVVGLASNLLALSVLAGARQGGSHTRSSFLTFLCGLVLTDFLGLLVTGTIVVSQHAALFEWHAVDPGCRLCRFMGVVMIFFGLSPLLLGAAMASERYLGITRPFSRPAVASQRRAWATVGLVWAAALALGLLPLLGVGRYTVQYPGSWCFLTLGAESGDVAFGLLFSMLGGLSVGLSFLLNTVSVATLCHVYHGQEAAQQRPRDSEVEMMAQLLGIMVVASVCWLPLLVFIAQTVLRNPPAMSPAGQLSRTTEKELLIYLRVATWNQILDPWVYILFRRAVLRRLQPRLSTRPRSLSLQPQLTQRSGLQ
Assay: Binding test: displacement of [3H]SQ-29.548 from human platelet thromboxane A2 receptors
Please answer in the form of a number followed by its unit of measurement.

compound	target entity	IC50
CCCCNC(=O)NS(=O)(=O)c1cc([N+](=O)[O-])ccc1NC1CCCCC1	thromboxane A2 receptors (TPα) of human platelets (Homo sapiens)	4.5 nM

Field: IC50. Fill in for each record below.
1. Cc1cccc(Nc2ccc([N+](=O)[O-])cc2S(=O)(=O)NC(=O)NC(C)(C)C)c1C
2. CC(Nc1ccc([N+](=O)[O-])cc1S(=O)(=O)NC(=O)NC(C)(C)C)c1ccccc1 (racemic)
3. Cc1ccc(C)c(Nc2ccc([N+](=O)[O-])cc2S(=O)(=O)NC(=O)NC(C)C)c1

Result:
1.2 nM
3.5 nM
11.5 nM
